Test system: LG0567-F671-PDC complex spheroids viability
Assay: Anticancer human tumor LG0567-F671-PDC patient-derived lung adenocarcinoma cell line growth inhibition [RAS]
Conditions: second compound 0.3 µM; first compound 1 µM; stronger effect = lower value
viability, T/C values, listed per item
Numbers only here, please. The scale is %.

Example cases with answers are listed next.
{"COMPOUND": "C[C@@H](NC(=O)c1ncnc(N)c1Cl)c1ncc(C(=O)Nc2cc(C(F)(F)F)c(Cl)cn2)s1 + CCn1c(-c2cc(N3CCN(C)CC3)cnc2C(C)OC)c2c3cc(ccc31)-c1csc(n1)CC(NC(=O)C1CC1C)C(=O)N1CCCC(N1)C(=O)OCC(C)(C)C2", "MEASUREMENT TYPE": "viability, T/C", "ASSAY VALUE": 4.35}
{"COMPOUND": "CC(Nc1ccc2c(c1)OCCn1cc(N3C(=O)OCC3C(F)F)nc1-2)C(N)=O (stereo not drawn) + CCn1c(-c2cccnc2C(C)OC)c2c3cc(ccc31)N1CCOC(CC(NC(=O)C(C(C)C)N(C)C(=O)C3(F)CCN(C(=O)C#CC(C)(C)N(C)C)CC3)C(=O)N3CCCC(N3)C(=O)OCC(C)(C)C2)C1", "MEASUREMENT TYPE": "viability, T/C", "ASSAY VALUE": 3.71}

Request: viability, T/C, test system LG0567-F671-PDC complex spheroids viability, entry C=CC(=O)Nc1cc(Nc2nccc(-c3cn(C)c4ccccc34)n2)c(OC)cc1N(C)CCN(C)C + CCn1c(-c2cc(N3CCN(C)CC3)cnc2C(C)OC)c2c3cc(ccc31)-c1csc(n1)CC(NC(=O)C1CC1C)C(=O)N1CCCC(N1)C(=O)OCC(C)(C)C2
0.63

###

IC50 values, listed per item
Test system: LG0567-F671-PDC complex spheroids viability
Experiment: Anticancer human tumor LG0567-F671-PDC cell line growth inhibition [RAS];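 further: spheroids exposed to compound for seven days before readout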;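 on IC50: luminescence signal used as a proxy for viable cells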
Details: curve of first compound; second compound 0.000949 µM

{"COMPOUND": "CC1(O)CCCC1n1c(=O)c(C(F)F)cc2cnc(NC3CCN(S(C)(=O)=O)CC3)nc21 (stereo not drawn) + CCn1c(-c2cccnc2C(C)OC)c2c3cc(ccc31)N1CCOC(CC(NC(=O)C(C(C)C)N(C)C(=O)C3(F)CCN(C(=O)C#CC(C)(C)N(C)C)CC3)C(=O)N3CCCC(N3)C(=O)OCC(C)(C)C2)C1", "IC50": "< 31.6 nM"}
{"COMPOUND": "C=CC(=O)Nc1cc(Nc2nccc(-c3cn(C)c4ccccc34)n2)c(OC)cc1N(C)CCN(C)C + CCn1c(-c2cc(N3CCN(C)CC3)cnc2C(C)OC)c2c3cc(ccc31)-c1csc(n1)CC(NC(=O)C1CC1C)C(=O)N1CCCC(N1)C(=O)OCC(C)(C)C2", "IC50": "< 3.16 nM"}
{"COMPOUND": "CCc1c2c(nc3ccc(O)cc13)-c1cc3c(c(=O)n1C2)COC(=O)[C@]3(O)CC + CCn1c(-c2cccnc2C(C)OC)c2c3cc(ccc31)N1CCOC(CC(NC(=O)C(C(C)C)N(C)C(=O)C3(F)CCN(C(=O)C#CC(C)(C)N(C)C)CC3)C(=O)N3CCCC(N3)C(=O)OCC(C)(C)C2)C1", "IC50": "< 0.949 nM"}
{"COMPOUND": "CC(Nc1ccc2c(c1)OCCn1cc(N3C(=O)OCC3C(F)F)nc1-2)C(N)=O (stereo not drawn) + CCn1c(-c2cc(N3CCN(C)CC3)cnc2C(C)OC)c2c3cc(ccc31)-c1csc(n1)CC(NC(=O)C1CC1C)C(=O)N1CCCC(N1)C(=O)OCC(C)(C)C2", "IC50": "< 31.6 nM"}
{"COMPOUND": "CCN1CCN(Cc2ccc(Nc3ncc(F)c(-c4cc(F)c5nc(C)n(C(C)C)c5c4)n3)nc2)CC1 + CCn1c(-c2cccnc2C(C)OC)c2c3cc(ccc31)N1CCOC(CC(NC(=O)C(C(C)C)N(C)C(=O)C3(F)CCN(C(=O)C#CC(C)(C)N(C)C)CC3)C(=O)N3CCCC(N3)C(=O)OCC(C)(C)C2)C1", "IC50": "< 3.16 nM"}

Which value of IC50 has been reported for CC(C)NCC(C(=O)N1CCN(c2ncnc3c2C(C)CC3O)CC1)c1ccc(Cl)cc1 (stereo not drawn) + CCn1c(-c2cc(N3CCN(C)CC3)cnc2C(C)OC)c2c3cc(ccc31)-c1csc(n1)CC(NC(=O)C1CC1C)C(=O)N1CCCC(N1)C(=O)OCC(C)(C)C2 in the records?
< 31.6 nM

// same read-out, input: O=C(c1ccc(F)c(F)c1Nc1ccc(I)cc1F)N1CC(O)([C@@H]2CCCCN2)C1 + CCn1c(-c2cccnc2C(C)OC)c2c3cc(ccc31)N1CCOC(CC(NC(=O)C(C(C)C)N(C)C(=O)C3(F)CCN(C(=O)C#CC(C)(C)N(C)C)CC3)C(=O)N3CCCC(N3)C(=O)OCC(C)(C)C2)C1
< 3.16 nM

// same read-out, input: CC(=O)OC12COC1CC(O)C1(C)C(=O)C(O)C3=C(C)C(OC(=O)C(O)C(NC(=O)OC(C)(C)C)c4ccccc4)CC(O)(C(OC(=O)c4ccccc4)C21)C3(C)C (stereo not drawn) + CCn1c(-c2cc(N3CCN(C)CC3)cnc2C(C)OC)c2c3cc(ccc31)-c1csc(n1)CC(NC(=O)C1CC1C)C(=O)N1CCCC(N1)C(=O)OCC(C)(C)C2
< 31.6 nM

###

System: LG0567-F671-PDC complex spheroids viability
Test: Anticancer human tumor LG0567-F671-PDC cell line growth inhibition [RAS];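 further: spheroids exposed to compound for seven days before readout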
Conditions: second compound 0.0949 µM; first compound 0.00949 µM; stronger effect = lower value
MEASUREMENT TYPE: viability, T/C (%)
Numbers only here, please. The scale is %.

Example cases with answers are listed next.
{"COMPOUND": "CC1(C)CCC(Nc2ncc(C(F)(F)F)c(-c3c[nH]c4c(P(C)(C)=O)c(C#N)ccc34)n2)CN1 (centres undefined) + CCn1c(-c2cc(N3CCN(C)CC3)cnc2C(C)OC)c2c3cc(ccc31)-c1csc(n1)CC(NC(=O)C1CC1C)C(=O)N1CCCC(N1)C(=O)OCC(C)(C)C2", "EXPERIMENTAL SYSTEM": "LG0567-F671-PDC complex spheroids viability", "ASSAY VALUE": 4.21}
{"COMPOUND": "CCc1c2c(nc3ccc(O)cc13)-c1cc3c(c(=O)n1C2)COC(=O)[C@]3(O)CC + CCn1c(-c2cccnc2C(C)OC)c2c3cc(ccc31)N1CCOC(CC(NC(=O)C(C(C)C)N(C)C(=O)C3(F)CCN(C(=O)C#CC(C)(C)N(C)C)CC3)C(=O)N3CCCC(N3)C(=O)OCC(C)(C)C2)C1", "EXPERIMENTAL SYSTEM": "LG0567-F671-PDC complex spheroids viability", "ASSAY VALUE": 10.1}
{"COMPOUND": "CC1(C)CCC(Nc2ncc(C(F)(F)F)c(-c3c[nH]c4c(P(C)(C)=O)c(C#N)ccc34)n2)CN1 (centres undefined) + CCn1c(-c2cccnc2C(C)OC)c2c3cc(ccc31)N1CCOC(CC(NC(=O)C(C(C)C)N(C)C(=O)C3(F)CCN(C(=O)C#CC(C)(C)N(C)C)CC3)C(=O)N3CCCC(N3)C(=O)OCC(C)(C)C2)C1", "EXPERIMENTAL SYSTEM": "LG0567-F671-PDC complex spheroids viability", "ASSAY VALUE": 11.1}

// next item, viability, T/C requested
Which value of viability, T/C has been reported for CCc1c2c(nc3ccc(O)cc13)-c1cc3c(c(=O)n1C2)COC(=O)[C@]3(O)CC + CCn1c(-c2cc(N3CCN(C)CC3)cnc2C(C)OC)c2c3cc(ccc31)-c1csc(n1)CC(NC(=O)C1CC1C)C(=O)N1CCCC(N1)C(=O)OCC(C)(C)C2 in the records?
2.57

###

Test system: LG0567-F671-PDC complex spheroids viability
Assay: Anticancer human tumor LG0567-F671-PDC cell line growth inhibition [RAS];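 further: spheroids exposed to compound for seven days before readout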
Settings: second compound 0.316 µM; first compound 0.0316 µM; stronger effect = lower value
MEASUREMENT TYPE: viability, T/C (%)
Numbers only here, please. The scale is %.

Example cases with answers are listed next.
{"MOLECULE": "C=CC(=O)N1CCN(c2nc(OCC3CCCN3C)nc3c(F)c(-c4nc(N)cc(C)c4C(F)(F)F)c(Cl)cc23)C(C)C1 (stereo not given) + C#Cc1c(F)ccc2cc(O)cc(-c3ncc4c(N5CC6CCC(C5)N6)nc(OCC56CCCN5CC(F)C6)nc4c3F)c12", "VALUE UNIT": "%", "viability, T/C": 11.2}
{"MOLECULE": "C[C@@H](NC(=O)c1ncnc(N)c1Cl)c1ncc(C(=O)Nc2cc(C(F)(F)F)c(Cl)cn2)s1 + C=CC(=O)N1CCN(c2nc(OCC3CCCN3C)nc3c(F)c(-c4nc(N)cc(C)c4C(F)(F)F)c(Cl)cc23)C(C)C1", "VALUE UNIT": "%", "viability, T/C": 15.5}
{"MOLECULE": "Nc1ccn(C2OC(CO)C(O)C2(F)F)c(=O)n1 (stereo not given) + C#Cc1c(F)ccc2cc(O)cc(-c3ncc4c(N5CC6CCC(C5)N6)nc(OCC56CCCN5CC(F)C6)nc4c3F)c12", "VALUE UNIT": "%", "viability, T/C": 47.6}
{"MOLECULE": "O=C(c1ccc(F)c(F)c1Nc1ccc(I)cc1F)N1CC(O)([C@@H]2CCCCN2)C1 + C=CC(=O)N1CCN(c2nc(OCC3CCCN3C)nc3c(F)c(-c4nc(N)cc(C)c4C(F)(F)F)c(Cl)cc23)C(C)C1", "VALUE UNIT": "%", "viability, T/C": 6.94}

// next item, viability, T/C requested
Which value of viability, T/C has been reported for CC(C)n1nc(-c2ccc3oc(N)nc3c2)c2c(N)ncnc21 + C#Cc1c(F)ccc2cc(O)cc(-c3ncc4c(N5CC6CCC(C5)N6)nc(OCC56CCCN5CC(F)C6)nc4c3F)c12 in the records?
34.2
